experiment: Solubility of substrates; type: physicochemical
Below, each entry is listed with its recorded Solubility.
Number in mg/mL, nothing else.

Some solved cases for reference:
1. COc1cc([N+](=O)[O-])ccc1O[C@@H]1O[C@H](CO)[C@H](O)[C@H](O)[C@H]1O    1.0
2. O=[N+]([O-])c1ccccc1O[C@@H]1O[C@H](CO)[C@H](O)[C@H](O)[C@H]1O [ONPG, o-nitrophenyl-β-D-galactopyranoside, reference compound]    10.0

Here is the next item to consider.
Lookup: Please report Solubility for the following compound: O=[N+]([O-])c1ccc(O[C@@H]2O[C@H](CO)[C@H](O)[C@H](O)[C@H]2O)cc1[N+](=O)[O-] [3,4 DNPG, 3,4-Dinitrophenyl-β-D-galactopyranoside]
Found: 3.0
